Where do these numbers come from? They come from the EternaBench riboswitch data.

- Tested on: MS2 coat protein
- assay.procedure: apparent Kd, MS2 coat protein; higher = weaker binding; RNA-MaP array; FMN 200 µM where present
- stated.conditions: ligand present: flavin mononucleotide; designed as: ON switch for flavin mononucleotide
Listing: apparent Kd of selected sequences
measure.name: apparent Kd (nM)

[[record]]
sequence_content = "CUCAUUAACAUGAGGAUCACCCAUGUUGGCCAGUCUCACACCAGAAGGCCCGUUGAGCACAGCAGGGAGGAUAUGGGUGACAUA"
test_result = 211

[[record]]
sequence_content = "GGCCAAGUCGAGAAGGCCGGUAGACAUGAGGAUCACCCAUGUAGUGCGUGGAGGAUAUUGAAUGGGUGGCGUAGGACCUGCGUU"
test_result = 18.6

[[record]]
sequence_content = "GAGUGGUAAAGAGGAUAUGCAUUGUUAUUAAAUGCAGAAGGUUUUAACAUGAGGAUCACCCAUGUAGGACUAUUCCUGUGUUUC"
test_result = 12.2

[[record]]
sequence_content = "UUGAAGCUCACAGGAUAUCAGUAUGCACGAUCUAGCGCAUUAAUGAACUGCUGAGAAGGGUGAGACAUGAGGAUCACCCAUGUA"
test_result = 209


###

Listing: apparent Kd of selected sequences
- Test system: MS2 coat protein
- assay.procedure: apparent Kd, MS2 coat protein; higher = weaker binding; RNA-MaP array; FMN 200 µM where present
- stated.conditions: designed as: ON switch for flavin mononucleotide; no ligand
measure.name: apparent Kd (nM)

[[record]]
sequence_content = "GUCUCAGUUGGCUUCAAGGGCGGUCAGGAUAUGCUAACGUACAUGAGGAUCACCCAUGUCCAAGUGCAGAAGGGACAUACGCCA"
measure_name = "apparent Kd"
test_result = 62.6

[[record]]
sequence_content = "UUUACAUGAGGAUCACCCAUGUAUAGAACGGUUCAUUAAAGUGAGGAUAUACGAAAUUUAAAAUCGUAGAAGGCACUGGGUACA"
measure_name = "apparent Kd"
test_result = 17

[[record]]
sequence_content = "GUAUAUAUUACAUGAGGAUCACCCAUGUCAGAACGGGUAAUCAGAAGGUAUUAUUAGAGAAAGGGUAAGGAUAUGAUUAUAUAU"
measure_name = "apparent Kd"
test_result = 605

[[record]]
sequence_content = "GUAUGGAGUACAGGAUAUGUAAGUUUUAAGUGUAUUGGUUAUUACUUAACAACAGAAGGGUAUUACAUGAGGAUCACCCAUGUA"
measure_name = "apparent Kd"
test_result = 13.4

[[record]]
sequence_content = "AUUUAUGGCCAGAAGGACAUGAGGAUCACCCAUGUAGGAUAUGGACGAUUUUGCUCGGCGGUUCGUUUAGGAAUCACCGGUGGU"
measure_name = "apparent Kd"
test_result = 7.88

[[record]]
sequence_content = "UAAAUUAUACAAGGAUAUCUAUCGUAGUUUAGACUUACAUGAGGAUCACCCAUGUUAAUAUGUUUAGAGAAGGUGUAUUUUCAG"
measure_name = "apparent Kd"
test_result = 43.3

[[record]]
sequence_content = "GAUAAACAUGAGGAUCACCCAUGUGUGAAUAUGGGAGGAUAUACGUGGACCGUAGUCCGCGUAGAAGGCCUAAUUG"
measure_name = "apparent Kd"
test_result = 225


###

- System: MS2 coat protein
- assay.procedure: apparent Kd, MS2 coat protein; higher = weaker binding; RNA-MaP array
- stated.conditions: designed as: OFF switch for flavin mononucleotide; no ligand
Returns one of yes or no; yes when apparent Kd is >= 20 nM.

[[record]]
sequence_content = "AGCGUGGAUAAAGGAUAUGUACCGGUAACUACAUGAGGAUCACCCAUGUCUUCAGGCCAAAACCGACAGAAGGUUACUUAUCGC"
class = "yes"

[[record]]
sequence_content = "AUUGUGAUAGCAGGAUAUUGUAUUGGUACAUGAGGAUCACCCAUGUUAAAAUCCUCUUGAUUUAGCAAGAAGGGCUCCAUGGCA"
class = "yes"

[[record]]
sequence_content = "UACCGGGCGAUAGGAUAUAUCAGUUACUUCACAUGAGGAUCACCCAUGUUACCCGUGGAAAGUUGAUAGAAGGAUCCAGCUCCA"
class = "yes"

[[record]]
sequence_content = "AGUUACAAUGUCAGGAUAUUGCUCCCACGACGGAACAAGAAGGGACAUGAGGAUCACCCAUGUUAGUCUUCGUC"
class = "no"

[[record]]
sequence_content = "AUAAUAGUAGGAUAUACAUGAGGAUCACCCAUGUGACCGCUCAAAGAUAGCGAUGCUCGUAGAAGGACUGUGGA"
class = "yes"

[[record]]
sequence_content = "GGUUCCGCUAAGGUGAAACAUGAGGAUCACCCAUGUCAAUCUGAGGAUAUUUAUCUCGACGAGGCAAAGAAGGCAGACUCGCGG"
class = "no"

[[record]]
sequence_content = "AAAAGUACAGGAUAUACAUGAGGAUCACCCAUGUCAGAAUAUAAUGAUAAGAAACUGAGUAGAAGGGUAACGAG"
class = "yes"

[[record]]
sequence_content = "AUUCGAACGGUCAGGAUAUGCGGAAAGACAUCGCAGCAGAAGGGACAUGAGGAUCACCCAUGUAAAGGGCACAA"
class = "yes"

[[record]]
sequence_content = "GUGUCGCGUACAGGAUAUGCUUAGGCGCUGCCCUCACAUGAGGAUCACCCAUGUAGUUUCCGCAGGCAGAAGGGUACUGACGUC"
class = "no"

[[record]]
sequence_content = "CUGUUCGUAGGAUAUACUGAAACACGGGACAUUCUGAUUAGACAUGAGGAUCACCCAUGUAGAAGGACGCACGU"
class = "no"

[[record]]
sequence_content = "AAGUGACAUGAGGAUCACCCAUGUGAGGAUAUGGCUGAACAGAAAUAUGGGAAAAGAGCCAGAAGGCACGCCGG"
class = "yes"

[[record]]
sequence_content = "GCUUUGCUGUGGUCCCUGAUACAUGAGGAUCACCCAUGUGAGAAGGAUAUUCAGAAUGGUCUCCCGAAGAAGGUCUGCACCUGG"
class = "no"

[[record]]
sequence_content = "AUAGCCAAACAAGGAUAUACGCGCGUCACAGAAAAUGGGACAUGAGGAUCACCCAUGUGGGAAGAGUAGAAGGUGUUUCCAGAU"
class = "yes"

[[record]]
sequence_content = "UCGCUGUAAGAGAAGGGCUCUGCAUGAGCACAUGAGGAUCACCCAUGUAAGAUCCUAAAGUACGAGCAGGAUAUCUCCGAGUGG"
class = "yes"

